The following binders are listed with their measured pIC50 values.
Target Or System: human NRP1 (human, UniProt O14786)
Method: competition phage ELISA
pIC50: −log10 of the molar value.

Binder	pIC50
YW107.4.58 (antibody, V domains shown) VH: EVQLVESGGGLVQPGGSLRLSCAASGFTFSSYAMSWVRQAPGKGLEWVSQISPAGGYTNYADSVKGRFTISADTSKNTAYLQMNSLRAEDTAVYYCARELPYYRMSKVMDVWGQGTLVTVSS VL: DIQMTQSPSSLSASVGDRVTITCRASQYISSYLAWYQQKPGKAPKLLIYGASSRASGVPSRFSGSGSGTDFTLTISSLQPEDFATYYCQQYKSSPRTFGQGTKVEIKR	9.14
YW107.4.54 (antibody, V domains shown) VH: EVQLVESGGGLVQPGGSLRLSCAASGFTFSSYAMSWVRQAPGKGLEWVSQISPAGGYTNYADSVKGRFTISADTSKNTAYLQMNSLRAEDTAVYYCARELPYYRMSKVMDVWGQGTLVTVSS VL: DIQMTQSPSSLSASVGDRVTITCRASQPLHSYLAWYQQKPGKAPKLLIYGASSRASGVPSRFSGSGSGTDFTLTISSLQPEDFATYYCQQYYRSPLTFGQGTKVEIKR	9.08
YW107.4.76b (antibody, V domains shown) VH: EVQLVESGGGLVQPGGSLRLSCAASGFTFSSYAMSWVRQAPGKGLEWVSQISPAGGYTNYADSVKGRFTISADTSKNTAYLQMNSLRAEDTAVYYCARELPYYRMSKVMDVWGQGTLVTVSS VL: DIQMTQSPSSLSASVGDRVTITCRASQWVHSYLAWYQQKPGKAPKLLIYGASSRASGVPSRFSGSGSGTDFTLTISSLQPEDFATYYCQQYYGTPITFGQGTKVEIKR	9.47
